Reported IC50 is given for each of the following compounds.
ASSAYED SYSTEM: purified recombinant human GAC (GLS1) (Homo sapiens (Human), UniProt O94925)
Sequence (O94925 other isoform, or with tags, fused parts or gaps): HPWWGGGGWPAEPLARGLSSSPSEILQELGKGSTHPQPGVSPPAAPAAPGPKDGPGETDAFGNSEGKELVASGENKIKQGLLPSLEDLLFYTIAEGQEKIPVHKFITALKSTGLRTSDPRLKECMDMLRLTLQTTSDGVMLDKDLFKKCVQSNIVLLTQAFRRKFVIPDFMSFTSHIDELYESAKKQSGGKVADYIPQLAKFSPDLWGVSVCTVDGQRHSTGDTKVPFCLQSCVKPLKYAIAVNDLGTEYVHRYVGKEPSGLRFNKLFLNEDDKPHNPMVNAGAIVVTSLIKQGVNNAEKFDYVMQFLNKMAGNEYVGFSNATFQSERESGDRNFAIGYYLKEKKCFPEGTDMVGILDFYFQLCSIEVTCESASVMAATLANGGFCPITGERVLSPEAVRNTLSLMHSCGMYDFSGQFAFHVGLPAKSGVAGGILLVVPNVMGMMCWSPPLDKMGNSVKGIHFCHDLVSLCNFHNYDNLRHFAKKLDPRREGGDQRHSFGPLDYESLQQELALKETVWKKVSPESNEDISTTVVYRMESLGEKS
PROCEDURE TEXT: GLS1 Enzymatic Activity Assay (dual-coupled enzymatic assay, resorufin/Amplex UltraRed readout);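 further: glutamate from GAC coupled via glutamate oxidase and peroxidase to resorufin, read as fluorescence (ex 530, em 590 nm) kinetically or at 20 min, four-parameter logistic IC50 fit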

INSERT INTO assay_data (compound, parameter, experimental_value) VALUES
  ('O=C(Cc1cccc(OC(F)(F)F)c1)Nc1nnc(CCCCn2cc(C(=O)NCc3ccccn3)nn2)s1 [Example 19]', 'IC50', '< 100 nM'),
  ('Cc1ccc(CNC(=O)c2cn(CCCCc3nnc(C(=O)NCc4ccc(C)nc4)s3)nn2)cn1 [Example 64]', 'IC50', '< 100 nM'),
  ('O=C(NCc1ncccc1F)c1cn(CCC(F)Cn2cc(C(=O)NCc3cccc(OC(F)(F)F)c3)nn2)nn1 (stereo not drawn) [Example 440]', 'IC50', '< 100 nM'),
  ('O=C(Cc1ccccn1)Nc1cn(CCCCn2cc(C(=O)NCc3cccnc3)nn2)nn1 [Example 321]', 'IC50', '500 to 5000 nM'),
  ('O=C(Cc1cc(OC(F)(F)F)ccc1F)Nc1cn(CCCCn2cc(C(=O)NCc3ncccc3F)nn2)nn1 [Example 382]', 'IC50', '< 100 nM'),
  ('CCC(=O)NCc1cn(CCCCn2cc(C(=O)NCc3cccc(OC(F)(F)F)c3)nn2)nn1 [Example 58]', 'IC50', '500 to 5000 nM'),
  ('CNC(=O)c1cn(CC(F)CCc2nnc(C(=O)NCc3ccc(C(F)(F)F)cn3)s2)nn1 (stereo not drawn) [Example 189]', 'IC50', '500 to 5000 nM'),
  ('O=C(CN1CC(F)C1)Nc1cn(CCCCn2cc(C(=O)NCc3cccc(OC(F)(F)F)c3)nn2)nn1 [Example 329]', 'IC50', '100 to 500 nM');

Case O=C(NCc1cccc(C(F)(F)F)n1)c1cn(CCC(F)Cn2cc(C(=O)NCc3cc(C(F)(F)F)ccn3)nn2)nn1 (stereo not drawn) [Example 474] , purified recombinant human GAC (GLS1) (Homo sapiens (Human), UniProt O94925), IC50 recorded as < 100 nM

Case CNC(=O)c1cn(CCC(F)Cn2cc(C(=O)NCc3cccc(C#N)c3)nn2)nn1 (stereo not drawn) [Example 182] , purified recombinant human GAC (GLS1) (Homo sapiens (Human), UniProt O94925), IC50 recorded as 100 to 500 nM

Case CNC(=O)c1cn(CCCCc2ccc(NC(=O)Cc3cccc(CNC(=O)OC(C)(C)C)c3)nn2)nn1 [Example 172] , purified recombinant human GAC (GLS1) (Homo sapiens (Human), UniProt O94925), IC50 recorded as < 100 nM

----------
Reported IC50 is given for each of the following compounds.
ASSAYED SYSTEM: purified recombinant human GAC (GLS1) (Homo sapiens (Human))
PROCEDURE TEXT: GLS1 Enzymatic Activity Assay (dual-coupled enzymatic assay, resorufin/Amplex UltraRed readout)

Example compounds with recorded IC50:
INSERT INTO measurements (compound, experimental_value) VALUES
  ('O=C(Cc1cc(OC(F)(F)F)ccc1F)Nc1cn(CCCCn2cc(C(=O)NCc3cccc(OC(F)(F)F)c3)nn2)nn1', '< 100 nM'),
  ('O=C(CC1CCCC1)Nc1cn(CCCCn2cc(C(=O)NCC3CC3)nn2)nn1', '500 to 5000 nM'),
  ('COCCNC(=O)c1cn(CCCCc2ccc(NC(=O)Cc3cc(OC(F)(F)F)ccc3F)nn2)nn1', '< 100 nM'),
  ('O=C(NCc1ccccc1)c1cn(CCC(F)Cn2cc(C(=O)NCc3cc(C(F)(F)F)ccn3)nn2)nn1 (centres unmarked)', '100 to 500 nM'),
  ('O=C(NCc1ccccc1)c1cn(CCCCc2nnc(C(=O)NCCO)s2)nn1', '500 to 5000 nM');

IC50 for O=C(NCc1ccc(C(F)(F)F)cn1)c1cn(CC(F)CCc2nnc(C(=O)NCc3cccc(C(F)(F)F)n3)s2)nn1 (centres unmarked) is < 100 nM

IC50 for CNC(=O)c1cn(CCCCc2ccc(NC(=O)CN3CCC(c4ccccc4)CC3)nn2)nn1 is 100 to 500 nM

IC50 for Cc1ccc(CNC(=O)c2cn(CCC(F)Cn3cc(NC(=O)Cc4ccccn4)nn3)nn2)cn1 (centres unmarked) is 100 to 500 nM
